OD450 overview
- system.under.test: T1, human MSLN-FL-his protein (human, UniProt Q13421 296-580)
- T1 construct: Made in HEK293E cells, purified on nickel column; also called hMSLN-FL-his; human MSLN full-length protein; not shown: His tag
- protocol.description: ELISA, coated antigen, antibody 0.2 nM
Lab note: jot the number down without any unit.

Example results:
>>> observed_value("S009-F7.30.5 chimeric antibody (antibody, human IgG1, kappa, V domains shown, Human-murine chimeric antibody, human IgG1/kappa constant regions) VH: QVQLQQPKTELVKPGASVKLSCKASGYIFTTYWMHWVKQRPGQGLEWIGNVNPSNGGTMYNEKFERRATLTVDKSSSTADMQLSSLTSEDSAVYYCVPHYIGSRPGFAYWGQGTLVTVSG VL: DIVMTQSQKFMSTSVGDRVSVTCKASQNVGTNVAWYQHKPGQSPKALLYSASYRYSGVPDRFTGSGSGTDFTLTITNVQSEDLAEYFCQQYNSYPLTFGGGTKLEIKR")
2.39
>>> observed_value("S009-F7.44.20 chimeric antibody (antibody, human IgG1, kappa, V domains shown, Human-murine chimeric antibody, human IgG1/kappa constant regions) VH: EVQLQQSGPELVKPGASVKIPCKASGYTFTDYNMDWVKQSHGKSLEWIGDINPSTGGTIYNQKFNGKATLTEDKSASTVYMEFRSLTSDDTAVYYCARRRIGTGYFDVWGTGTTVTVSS VL: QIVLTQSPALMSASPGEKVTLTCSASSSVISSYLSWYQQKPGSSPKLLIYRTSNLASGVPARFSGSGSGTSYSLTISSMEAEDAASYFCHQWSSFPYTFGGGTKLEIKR")
2.26

Entry under review: S009-F7.48.1 chimeric antibody (antibody, human IgG1, kappa, V domains shown, Human-murine chimeric antibody, human IgG1/kappa constant regions) VH: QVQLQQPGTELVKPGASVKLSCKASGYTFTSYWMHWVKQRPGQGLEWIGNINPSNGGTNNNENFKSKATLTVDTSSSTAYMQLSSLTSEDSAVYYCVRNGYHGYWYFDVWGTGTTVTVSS VL: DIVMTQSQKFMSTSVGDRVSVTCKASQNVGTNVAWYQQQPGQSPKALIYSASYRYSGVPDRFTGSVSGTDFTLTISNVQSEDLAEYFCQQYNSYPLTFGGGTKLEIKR . Reported OD450?
1.87
